// data source = patent US20100256357A1

target.desc: human CA-II (Homo sapiens, UniProt P00918)
Construct: purchased Sigma-Aldrich C6165
test.details: Carbonic Anhydrase-II (CA-II) Fluorimetric Assay-IC50 Determination
Type: biochemical
measurement.setup: CA II Min dose 100 nM; read-out: CAII % Inh @ Min dose

- molecule: "CCCCN(CC)C(=O)c1nc(Cc2ccccc2)n(-c2ccc(S(N)(=O)=O)cc2)n1 [Example R-14]"
  target.desc: "human CA-II (Homo sapiens, UniProt P00918)"
  value.units: "%"
  inhibition at 0.1 µM: 100
- molecule: "CC(=O)N1CCCN(C(=O)c2nc(Cc3ccccc3)n(-c3ccc(S(N)(=O)=O)cc3)n2)CC1 [Example R-18]"
  target.desc: "human CA-II (Homo sapiens, UniProt P00918)"
  value.units: "%"
  inhibition at 0.1 µM: 96
- molecule: "CN(CCC#N)C(=O)c1nc(Cc2ccccc2)n(-c2ccc(S(N)(=O)=O)cc2)n1 [Example R-10]"
  target.desc: "human CA-II (Homo sapiens, UniProt P00918)"
  value.units: "%"
  inhibition at 0.1 µM: 99
- molecule: "NS(=O)(=O)c1ccc(-n2nc(C(=O)NCC3CCCCC3)nc2Cc2ccccc2)cc1 [Example R-17]"
  target.desc: "human CA-II (Homo sapiens, UniProt P00918)"
  value.units: "%"
  inhibition at 0.1 µM: 101
- molecule: "CN(C(=O)c1nc(Cc2ccccc2)n(-c2ccc(S(N)(=O)=O)cc2)n1)C1CCCCC1 [Example R-25]"
  target.desc: "human CA-II (Homo sapiens, UniProt P00918)"
  value.units: "%"
  inhibition at 0.1 µM: 101
- molecule: "NS(=O)(=O)c1ccc(-n2nc(C(=O)N3CCc4ccccc4CC3)nc2Cc2ccccc2)cc1 [Example R-4]"
  target.desc: "human CA-II (Homo sapiens, UniProt P00918)"
  value.units: "%"
  inhibition at 0.1 µM: 100
- molecule: "NS(=O)(=O)c1ccc(-n2nc(C(=O)N3CCOc4ccccc4C3)nc2Cc2ccccc2)cc1 [Example R-7]"
  target.desc: "human CA-II (Homo sapiens, UniProt P00918)"
  value.units: "%"
  inhibition at 0.1 µM: 101
- molecule: "CCCCCN(CCO)C(=O)c1nc(Cc2ccccc2)n(-c2ccc(S(N)(=O)=O)cc2)n1 [Example R-16]"
  target.desc: "human CA-II (Homo sapiens, UniProt P00918)"
  value.units: "%"
  inhibition at 0.1 µM: 100
